Each recorded value in this set is attributed to patent US20100015058A1.

Experiment notes: MicroPET blood and normal organ uptake in T47D and MDA-MB-435 tumor-bearing nude mice
Test context: nude, mouse, muscle, iv, total radioactivity
Result type: tissue uptake at 0.5 h (%ID/g)

>>> quantitative_result("CSCC[C@H](NC(=O)[C@H](CC(C)C)NC(=O)[C@H](Cc1c[nH]cn1)NC(=O)CNC(=O)[C@@H](NC(=O)[C@H](C)NC(=O)[C@H](Cc1c[nH]c2ccccc12)NC(=O)[C@H](CCC(N)=O)NC(=O)CCCCCNC(=O)CC[C@H](NC(=O)COCCOCCOCCNC(=O)c1ccc([18F])cc1)C(=O)NCCCC[C@@H]1NC(=O)[C@@H](Cc2ccc(O)cc2)NC(=O)[C@H](CC(=O)O)NC(=O)CNC(=O)[C@H](CCCNC(=N)N)NC1=O)C(C)C)C(N)=O [^18F-FB-PEG3-RGD-BBN]")
0.81

* * *

Here the recorded tissue uptake at 1 h is given for each entry.
Experiment notes: in vivo
Test context: male, athymic nude, mouse, in vivo, iv, 3.7 MBq, total radioactivity, PC-3 tumor uptake, static scan after dynamic scan
Result type: tissue uptake at 1 h (%ID/g)

>>> quantitative_result("CSCC[C@H](NC(=O)[C@H](CC(C)C)NC(=O)[C@H](Cc1c[nH]cn1)NC(=O)CNC(=O)[C@@H](NC(=O)[C@H](C)NC(=O)[C@H](Cc1c[nH]c2ccccc12)NC(=O)[C@H](CCC(N)=O)NC(=O)CCCCCNC(=O)CC[C@H](NC(=S)Nc1ccc(C[C@H]2CN(CC(=O)O)CCN(CC(=O)O)CCN2CC(=O)O)cc1)C(=O)NCCCC[C@@H]1NC(=O)[C@@H](Cc2ccc(O)cc2)NC(=O)[C@H](CC(=O)O)NC(=O)CNC(=O)[C@H](CCCNC(=N)N)NC1=O)C(C)C)C(N)=O [^68Ga-NOTA-RGD-BBN, metal not drawn]")
4.47
>>> quantitative_result("CSCC[C@H](NC(=O)[C@H](CC(C)C)NC(=O)[C@H](Cc1c[nH]cn1)NC(=O)CNC(=O)[C@@H](NC(=O)[C@H](C)NC(=O)[C@H](Cc1c[nH]c2ccccc12)NC(=O)[C@H](CCC(N)=O)NC(=O)CCCCCNC(=O)CC[C@H](NC(=O)COCCOCCOCCNC(=O)c1ccc([18F])cc1)C(=O)NCCCC[C@@H]1NC(=O)[C@@H](Cc2ccc(O)cc2)NC(=O)[C@H](CC(=O)O)NC(=O)CNC(=O)[C@H](CCCNC(=N)N)NC1=O)C(C)C)C(N)=O [^18F-FB-PEG3-RGD-BBN]")
4.08

* * *

Experiment notes: in vivo
Test context: mouse, in vivo, iv, 5.5 MBq, total radioactivity, Kidney uptake
Procedure: (a) PET scans and image analysis were performed using a micro-PET R4 rodent model scanner (Siemens Medical Solutions) as reported by Li et al., J. Nucl. Med. (2007) 48: 1162-1171 and Wu et al., J Nucl. […] The average radioactivity concentration (accumulation) within a tumor or an organ was obtained from mean pixel values within the multiple ROI volume, which were converted to counts/mL/min using a conversion factor. […]
Result type: tissue uptake at 1 h (%ID/g)

>>> quantitative_result("CSCC[C@H](NC(=O)[C@H](CC(C)C)NC(=O)[C@H](Cc1c[nH]cn1)NC(=O)CNC(=O)[C@@H](NC(=O)[C@H](C)NC(=O)[C@H](Cc1c[nH]c2ccccc12)NC(=O)[C@H](CCC(N)=O)NC(=O)CCCCCNC(=O)CC[C@H](NC(=O)CN1CCN(CC(=O)O)CCN(CC(=O)O)CCN(CC(=O)O)CC1)C(=O)NCCCC[C@@H]1NC(=O)[C@@H](Cc2ccc(O)cc2)NC(=O)[C@H](CC(=O)O)NC(=O)CNC(=O)[C@H](CCCNC(=N)N)NC1=O)C(C)C)C(N)=O [^64Cu-DOTA-RGD-BBN, metal not drawn]")
3.4
>>> quantitative_result("CSCC[C@H](NC(=O)[C@H](CC(C)C)NC(=O)[C@H](Cc1c[nH]cn1)NC(=O)CNC(=O)[C@@H](NC(=O)[C@H](C)NC(=O)[C@H](Cc1c[nH]c2ccccc12)NC(=O)[C@H](CCC(N)=O)NC(=O)CCCCCNC(=O)CC[C@H](NC(=S)Nc1ccc(C[C@H]2CN(CC(=O)O)CCN(CC(=O)O)CCN2CC(=O)O)cc1)C(=O)NCCCC[C@@H]1NC(=O)[C@@H](Cc2ccc(O)cc2)NC(=O)[C@H](CC(=O)O)NC(=O)CNC(=O)[C@H](CCCNC(=N)N)NC1=O)C(C)C)C(N)=O [^64Cu-NOTA-RGD-BBN, metal not drawn]")
3.06
>>> quantitative_result("CSCC[C@H](NC(=O)[C@H](CC(C)C)NC(=O)[C@H](Cc1c[nH]cn1)NC(=O)CNC(=O)[C@@H](NC(=O)[C@H](C)NC(=O)[C@H](Cc1c[nH]c2ccccc12)NC(=O)[C@H](CCC(N)=O)NC(=O)CCCCCNC(=S)Nc1ccc(C[C@H]2CN(CC(=O)O)CCN(CC(=O)O)CCN2CC(=O)O)cc1)C(C)C)C(N)=O [^64Cu-NOTA-BBN, metal not drawn, reference compound]")
1.5
>>> quantitative_result("N=C(N)NCCC[C@@H]1NC(=O)[C@H](CCCCNC(=S)Nc2ccc(C[C@H]3CN(CC(=O)O)CCN(CC(=O)O)CCN3CC(=O)O)cc2)NC(=O)[C@@H](Cc2ccc(O)cc2)NC(=O)[C@H](CC(=O)O)NC(=O)CNC1=O [^64Cu-NOTA-RGD, metal not drawn, reference compound]")
2.13
